Provenance of the data: patent US20240116985A1

molecular target: full-length beta-Catenin (Uniprot ID P35222) (Homo sapiens, UniProt P35222); construct: 10 nM full-length beta-Catenin (Uniprot ID P35222); assay: Fluorescence polarization IC50 (beta-catenin / 5FAM-TCF4 10-53 competition); type: binding; settings: fluorescence polarization; read-out: beta-Catenin FP IC50
Sequence (P35222 whole entry): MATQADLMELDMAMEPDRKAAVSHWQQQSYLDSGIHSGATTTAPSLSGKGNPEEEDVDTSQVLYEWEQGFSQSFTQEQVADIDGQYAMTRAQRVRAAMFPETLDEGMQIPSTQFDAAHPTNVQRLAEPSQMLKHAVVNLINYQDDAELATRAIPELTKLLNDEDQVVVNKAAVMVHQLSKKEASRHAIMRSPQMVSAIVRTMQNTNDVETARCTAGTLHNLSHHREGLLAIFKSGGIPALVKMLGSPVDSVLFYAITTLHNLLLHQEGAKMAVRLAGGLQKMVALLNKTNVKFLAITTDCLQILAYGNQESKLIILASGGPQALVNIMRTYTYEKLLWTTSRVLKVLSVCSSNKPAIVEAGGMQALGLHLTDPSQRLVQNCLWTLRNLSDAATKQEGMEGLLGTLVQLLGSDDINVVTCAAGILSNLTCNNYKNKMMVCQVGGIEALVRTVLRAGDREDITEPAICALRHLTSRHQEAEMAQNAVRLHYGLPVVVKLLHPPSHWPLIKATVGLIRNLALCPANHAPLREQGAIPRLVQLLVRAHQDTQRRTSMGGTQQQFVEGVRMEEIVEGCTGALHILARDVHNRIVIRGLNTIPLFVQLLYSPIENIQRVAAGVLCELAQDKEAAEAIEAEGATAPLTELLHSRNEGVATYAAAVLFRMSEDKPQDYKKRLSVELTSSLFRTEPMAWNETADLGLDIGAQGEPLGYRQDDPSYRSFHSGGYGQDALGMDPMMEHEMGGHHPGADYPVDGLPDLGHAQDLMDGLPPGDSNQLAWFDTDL
attribute measured: IC50
Write the figure, then the unit, nothing else.

# input compound: CC(=O)N1CCC[C@]12CC=CCCCC1(CCCC=CCCCOC(=O)N3CC[C@@](C(=O)N[C@@H](Cc4ccsc4)C(=O)N[C@@H](Cc4csc5ccccc45)C(=O)N[C@@H](Cc4ccccc4)C(N)=O)(C3)NC(=O)[C@H]([C@@H](C)O)NC(=O)[C@H](Cc3ccccc3)NC(=O)[C@H](C)NC(=O)[C@H](CCCCNC(C)C)NC(=O)[C@H](CN(CC(=O)O)CC(F)(F)F)NC(=O)[C@H](CC(=O)O)NC1=O)NC(=O)[C@H](CC(C)(C)C)NC(=O)[C@H](CC(=O)O)NC2=O (stereo partly shown) ; wanted: its IC50
13 nM

====

Form field: IC50 (one value per entry).
biological target: beta-catenin/TCF4 engagement (Homo sapiens, UniProt P35222); construct: expressed in transfected cells; host or cells: HEK293; assay: Nano-BRET target engagement assay (B-cat-Halo & TCF4-Luc in HEK293 cells); type: cell-based; conditions: read-out: NanoBRET Abs IC50
Sequence (P35222 whole entry): as above
Number in µM, nothing else.

molecule	attribute measured	reading
CC(=O)N1CCC[C@]12CC=CCCCC1(CCCC=CCCCOC(=O)N3CC[C@@](C(=O)N[C@@H](Cc4ccccc4Cl)C(=O)N[C@@H](Cc4csc5ccccc45)C(=O)N[C@@H](C)C(N)=O)(C3)NC(=O)[C@H](C)NC(=O)[C@H](Cc3ccccc3)NC(=O)[C@H](C)NC(=O)[C@H](C)NC(=O)[C@H](Cc3cccc(C(=O)O)c3)NC(=O)[C@H](CC(=O)O)NC1=O)NC(=O)[C@H](CC(C)(C)C)NC(=O)[C@H](CC(=O)O)NC2=O (stereo partly drawn)	IC50	7.8

Now consider the entry below.
# input molecule: CC(=O)N1CCC[C@]12CC=CCCCC1(CCCC=CCCCOC(=O)N3CC[C@@](C(=O)N[C@@H](Cc4cccs4)C(=O)N[C@@H](Cc4csc5ccccc45)C(=O)N[C@@H](CCC(N)=O)C(N)=O)(C3)NC(=O)[C@H](CC(N)=O)NC(=O)[C@H](Cc3ccccc3)NC(=O)[C@H](C)NC(=O)[C@H](C)NC(=O)[C@H](CC(=O)O)NC(=O)[C@H](CC(=O)O)NC1=O)NC(=O)[C@H](CC(C)(C)C)NC(=O)[C@H](CC(=O)O)NC2=O (stereo partly drawn) ; wanted: its IC50
11.2

====

assay: CHI Log D procedure; type: physicochemical; details: pH 7.4
Form field: CHI Log D (one value per entry).
Lab note: record just the number, no unit beside it.

compound	CHI Log D
CC(=O)N1CCC[C@]12CC=CCCCC1(CCCC=CCCCCCC[C@@](C)(C(=O)N[C@@H](Cc3ccccc3)C(=O)N[C@@H](Cc3c[nH]c4ccccc34)C(=O)N[C@@H](CCC(N)=O)C(N)=O)NC(=O)[C@H](C(C)C)NC(=O)[C@H](Cc3ccccc3)NC(=O)[C@H](C)NC(=O)[C@H](C)NC(=O)[C@H](CC(N)=O)NC(=O)[C@H](CC(=O)O)NC1=O)NC(=O)[C@H](C)NC(=O)[C@H](CC(=O)O)NC2=O (stereo partly shown) [I-124]	2.252

# input compound: CC(=O)N1CCC[C@]12CC=CCCCC1(CCCC=CCCCCCC[C@@](C)(C(=O)N[C@@H](Cc3ccccc3)C(=O)N[C@@H](Cc3c[nH]c4ccccc34)C(=O)N[C@@H](CCC(N)=O)C(N)=O)NC(=O)[C@H](C(C)C)NC(=O)[C@H](C)NC(=O)[C@H](C)NC(=O)[C@H](C)NC(=O)[C@H](CC(=O)O)NC(=O)[C@H](CC(=O)O)NC1=O)NC(=O)[C@H](C)NC(=O)[C@H](CC(=O)O)NC2=O (stereo partly shown) [I-354] ; wanted: its CHI Log D
1.947

Try the compound CC(=O)N1CCC[C@]12CC=CCCCC1(CCCC=CCCCCCC[C@@](C)(C(=O)N[C@@H](Cc3ccccc3)C(=O)N[C@@H](Cc3csc4ccccc34)C(=O)N[C@@H](CCC(N)=O)C(=O)NC(C)(C)C(N)=O)NC(=O)[C@H](CC(N)=O)NC(=O)[C@H](Cc3ccccc3)NC(=O)[C@H](C)NC(=O)[C@H](C)NC(=O)[C@H](CCC(=O)O)NC(=O)[C@H](CC(=O)O)NC1=O)NC(=O)[C@H](CC(C)C)NC(=O)[C@H](CC(=O)O)NC2=O (stereo partly shown)
2.722
